Reference source for all entries: patent US20170253607A1

For each of the molecules below, state its pIC50.
target: HIV-1 PR (Human immunodeficiency virus type 1 group M subtype B, UniProt P04585); test: HIV-protease inhibitory activity assay (FRET peptide substrate); details: Test Example 1
pIC50 here is simply -log10 of the concentration when that concentration is written in mol/L.

Would you mind telling me what pIC50 value was observed for COc1ccc(S(=O)(=O)N(CC(C)C)CC(O)C(Cc2ccc(NCc3cccc(-c4sc5c(c4C(=O)O)CC(C)(C)CC5)c3)cc2)NC(=O)OC2COC3(C)OCCC23)cc1 (centres unmarked) ?
8.58

Suppose we examine the molecule COc1ccc(S(=O)(=O)N(CC(C)C)CC(O)C(Cc2ccc(CNC(=O)c3cc(-c4ccc(F)cc4F)ccc3O)cc2)NC(=O)OC2COC3OCCC23)cc1 (centres unmarked) ; what pIC50 value has been reported?
8.81

Find the recorded pIC50 belonging to COc1ccc(S(=O)(=O)N(CC(C)C)CC(O)C(Cc2ccc(N(C)Cc3ccc(Oc4ccc(-c5sc6c(c5C(=O)O)CC(C)(C)CC6)c(C)c4)cc3)cc2)NC(=O)OC2COC3(C)OCCC23)cc1 (centres unmarked) and report it.
7.52

Which measured pIC50 value corresponds to COc1ccc(S(=O)(=O)N(CC(C)C)CC(O)C(Cc2ccc(NC(C)c3ccccc3-c3sc4c(c3C(=O)O)CC(C)(C)CC4)cc2)NC(=O)OC2COC3(C)OCCC23)cc1 (centres unmarked) [Compound I-603] ?
8.44

Requested read-out: pIC50. Entry: COc1ccc(S(=O)(=O)N(CC(C)C)CC(O)C(Cc2ccc(NCc3c(C)c(C)c(-c4sc5c(c4C(=O)O)CC(C)(C)CC5)c(C)c3C)cc2)NC(=O)OC2COC3(C)OCCC23)cc1 (centres unmarked)
7.37

Which value of pIC50 has been reported for COc1ccc(S(=O)(=O)N(CC(C)C)CC(O)C(Cc2ccc(NCc3ncccc3C(=O)Nc3sc4c(c3C(=O)O)CC(C)(C)CC4)cc2)NC(=O)OC2COC3OCCC23)cc1 (centres unmarked) in the records?
8.64

pIC50 lookup needed for COc1ccc(S(=O)(=O)N(CC(C)C)CC(O)C(Cc2ccc(NCc3ccc(OC)cc3C(=O)Nc3sc4c(c3C(=O)O)CC(C)(C)CC4)cc2)NC(=O)OC2COC3(C)OCCC23)cc1 (centres unmarked) , thanks.
8.49

Report pIC50 for COc1ccc(S(=O)(=O)N(CC(C)C)CC(O)C(Cc2ccc(CN(C)C3CCCCC3c3sc4c(c3C(=O)O)CC(C)(C)CC4)cc2)NC(=O)OC2COC3(C)OCCC23)cc1 (centres unmarked) [Compound I-342] please.
8.69

Tell me the measured pIC50 of COc1ccc(S(=O)(=O)N(CC(C)C)CC(O)C(Cc2ccc(NCc3ccccc3-c3sc4c(c3C(=O)O)CC(C)(C)CC4)cc2)NC(=O)OC2COC3OCCC23)cc1 (centres unmarked) , please.
8.70

Fill in: pIC50 of COc1ccc(S(=O)(=O)N(CC(C)C)CC(O)C(Cc2ccc(N(C)Cc3cc(C(F)(F)F)ccc3C(=O)Nc3sc4c(c3C(=O)O)CC(C)(C)CC4)cc2)NC(=O)OC2COC3(C)OCCC23)cc1 (centres unmarked) is ___
7.81

Give its pIC50 value. Item: COc1ccc(S(=O)(=O)N(CC(C)C)CC(O)C(Cc2ccc(OCc3ncccc3-c3ccccc3-c3sc4c(c3C(=O)O)CC(C)(C)CC4)cc2)NC(=O)OC2COC3(C)OCCC23)cc1 (centres unmarked)
8.78

Return reported pIC50; argument: COc1ccc(S(=O)(=O)N(CC(C)C)CC(O)C(Cc2ccc(OCc3ncc(F)cc3-c3sc4c(c3C(=O)O)CC(C)(C)CC4)cc2)NC(=O)OC2COC3(C)OCCC23)cc1 (centres unmarked)
8.84

What value of measured pIC50 is listed for COc1ccc(S(=O)(=O)N(CC(C)C)CC(O)C(Cc2ccc(OCc3ccccc3-c3ccc4c(c3)C(=O)C(c3ccc(F)cc3)C4=O)cc2)NC(=O)OC2COC3OCCC23)cc1 (centres unmarked) ?
8.66

GET /values?readout=pIC50&item= COc1ccc(S(=O)(=O)N(CC(C)C)CC(O)C(Cc2ccc(N(Cc3ccccc3-c3sc4c(c3C(=O)O)CC(C)(C)CC4)CC3CC3)cc2)NC(=O)OC2COC3(C)OCCC23)cc1 (centres unmarked)
8.45

Fill in: pIC50 of `COc1ccc(S(=O)(=O)N(CC(C)C)C[C@@H](O)[C@H](Cc2ccc(OCc3ccc(-c4ccc(F)cc4F)cc3-c3nnn[nH]3)cc2)NC(=O)O[C@H]2CO[C@@]3(C)OCC[C@@H]23)cc1` is ___
9.00

Value lookup for pIC50; key = `COc1ccc(S(=O)(=O)N(CC(C)C)C[C@@H](O)[C@H](Cc2ccc(OCc3ccccc3-c3sc4c(c3C(N)=O)CC(C)(C)CC4)cc2)NC(=O)O[C@H]2CO[C@@]3(C)OCC[C@@H]23)cc1`
8.75

Return reported pIC50; argument: COc1ccc(S(=O)(=O)N(CC(C)C)CC(O)C(Cc2ccc(NCC3=C(c4sc5c(c4C(=O)O)CC(C)(C)CC5)CCN(C)C3)cc2)NC(=O)OC2COC3(C)OCCC23)cc1 (centres unmarked)
8.64

Given the entry COc1ccc(S(=O)(=O)N(CC(C)C)CC(O)C(Cc2ccc(NCc3ccc(C(=O)O)cc3-c3sc4c(c3C(=O)O)CC(C)(C)CC4)cc2)NC(=O)OC2COC3(C)OCCC23)cc1 (centres unmarked) , report its measured pIC50.
8.74

Report pIC50 for COc1ccc(S(=O)(=O)N(CC(C)C)CC(O)C(Cc2ccc(OCc3ccccc3-n3nc4c(c3C(=O)O)Cc3ccccc3-4)cc2)NC(=O)OC2COC3(C)OCCC23)cc1 (centres unmarked) please.
9.00

Give the measured pIC50 of COc1ccc(S(=O)(=O)N(CC(C)C)CC(O)C(Cc2ccc(NCc3cc(O)ccc3-c3sc4c(c3C(=O)O)CC(C)(C)CC4)cc2)NC(=O)OC2COC3(C)OCCC23)cc1 (centres unmarked) .
8.87

* * *

Would you mind telling me the reported IC50 of each entry?
target: HIV-1 PR (Human immunodeficiency virus type 1 group M subtype B); assay: HIV-protease inhibitory activity assay (FRET peptide substrate); details: Test Example 1
I only need the number, in nM, no unit after it.

Using the record for COc1ccc(S(=O)(=O)N(CC(C)C)CC(O)C(Cc2ccc(NC3Cc4cccc(-c5sc6c(c5C(=O)O)CC(C)(C)CC6)c4C3)cc2)NC(=O)OC2COC3(C)OCCC23)cc1 (centres unmarked) [Compound I-241] , report its IC50.
2.95

So what's the measured IC50 for this one? COc1ccc(S(=O)(=O)N(CC(C)C)CC(O)C(Cc2ccc(CN(C)Cc3cccc(-c4sc5c(c4C(=O)O)CC(C)(C)CC5)c3)cc2)NC(=O)OC2COC3(C)OCCC23)cc1 (centres unmarked)
2.61

IC50 lookup needed for COc1ccc(S(=O)(=O)N(CC(C)C)CC(O)C(Cc2ccc(NCc3nc4ccccc4cc3C(=O)Nc3sc4c(c3C(=O)O)CC(C)(C)CC4)cc2)NC(=O)OC2COC3OCCC23)cc1 (centres unmarked) , thanks.
3.48

Report IC50 for COc1ccc(S(=O)(=O)N(CC(C)C)CC(O)C(Cc2ccc(NCc3c(-c4sc5c(c4C(=O)O)CC(C)(C)CC5)ccc(F)c3F)cc2)NC(=O)OC2COC3(C)OCCC23)cc1 (centres unmarked) please.
1.6

I'd like to know its IC50. The compound in question is COc1ccc(S(=O)(=O)N(CC(C)C)CC(O)C(Cc2ccc(NCC3=C(c4sc5c(c4C(=O)O)CC(C)(C)CC5)CCC3)cc2)NC(=O)OC2COC3(C)OCCC23)cc1 (centres unmarked)
4.69

* * *

Molecular target: UniProt:P04585
Experiment: HIV-protease inhibitory activity assay (FRET peptide substrate)
Settings: Test Example 1
Method: Test Example 1: HIV-Protease Inhibitory Activity Assay The HIV-1 PR assay was performed by using a FRET (Fluorescence Resonance Energy Transfer) peptide substrate (AnaSpec, Inc., Fremont, Calif.). Initially in the intact FRET peptide, the fluorescence of HiLyte Fluor 488 is quenched by QXL 520. Upon substrate cleavage by PR, the fluorescence is recovered and can be monitored. […] Background fluorescence intensity was measured and let it stand for another 15 minutes at room temperature. […]
measurement.kind: IC50 (nM)
# value in nM; strip the unit string

Quick one: IC50 of COc1ccc(S(=O)(=O)N(CC(C)C)CC(O)C(Cc2ccc(N3CCC(C(=O)Nc4sc5c(c4C(=O)O)CC(C)(C)CC5)C3)cc2)NC(=O)OC2COC3(C)OCCC23)cc1 (stereo not drawn) ?
2.51

What does the record list as IC50 for COc1ccc(S(=O)(=O)N(CC(C)C)CC(O)C(Cc2ccc(N(C)Cc3nc(N(C4CCCCC4)C4CCCCC4)sc3-c3sc4c(c3C(=O)O)CC(C)(C)CC4)cc2)NC(=O)OC2COC3(C)OCCC23)cc1 (stereo not drawn) ?
6.76

What value of IC50 has been recorded for this entry: COc1ccc(S(=O)(=O)N(CC(C)C)CC(O)C(Cc2ccc(N(CCC(F)(F)F)Cc3ccccc3-c3sc4c(c3C(=O)O)CC(C)(C)CC4)cc2)NC(=O)OC2COC3(C)OCCC23)cc1 (stereo not drawn)
17.5
